biological target: Human recombinant MMP-14 (Homo sapiens, UniProt P50281); construct: The catalytic domain enzyme was expressed in E. coli inclusion bodies, solubilized in urea; made in house; test: In vitro MMP inhibition, IC50 determination (fluorogenic substrate I); format: biochemical; conditions: value outside parentheses (Ki in parenthesis)
pIC50: −log10 of the molar value.
Measured pIC50 accompanies every entry in the list below.

1. COC(=O)c1ccc(C(=O)NCCCOc2ccc(S(=O)(=O)C3(C(=O)NO)CCOCC3)cc2)cc1 | < 5.00
2. Cc1cc(-c2nnc(CCCOc3ccc(S(=O)(=O)C4(C(=O)NO)CCOCC4)cc3)o2)ccc1OC(C)C | < 5.00

Switching to the query record.
QUERY: Provide the documented pIC50 with Human recombinant MMP-14 (Homo sapiens, UniProt P50281) as the system for CCCCCc1ccc(-c2nnc(CCCOc3ccc(S(=O)(=O)C4(C(=O)NO)CCOCC4)cc3)o2)cc1
RESULT: < 5.00

###

target: Human recombinant MMP-14 (Homo sapiens); construct: The catalytic domain enzyme was expressed in E. coli inclusion bodies, solubilized in urea; made in house; test: In vitro MMP inhibition, Ki determination (fluorogenic substrate II); format: biochemical; settings: value in parenthesis
test.readout: Ki

1) COCCN1CCC(C(=O)NO)(S(=O)(=O)c2ccc(OCCCc3nc(-c4ccc(Br)cc4C)no3)cc2)CC1 | 9.51 µM
2) CCCCc1ccc(-c2noc(CCCOc3ccc(S(=O)(=O)C4(C(=O)NO)CCOCC4)cc3)n2)c(C)c1 | > 10 µM
3) COCCN1CCC(C(=O)NO)(S(=O)(=O)c2ccc(OCCCc3nc(-c4ccc(C5(c6ccccc6)CC5)cc4)no3)cc2)CC1 | > 10 µM

Switching to the query record.
QUERY: What value of measured Ki is listed for Cc1ccc(-c2cccc(CCOc3ccc(S(=O)(=O)C4(C(=O)NO)CCOCC4)cc3)c2)cc1 ?
RESULT: > 10 µM

###

molecular target: Human recombinant MMP-9 (Homo sapiens); construct: made in house; host or cells: MMP-9-transfected HT1080 cells (spent media); experiment: In vitro MMP inhibition, Ki determination (fluorogenic substrate II); assay type: biochemical; details: value in parentheses
Output satisfied for records whose Ki is lower than 400 nM, not satisfied for records at or above 400 nM.

1. COCCN1CCC(C(=O)NO)(S(=O)(=O)c2ccc(OCCCc3cccc(-c4cccc(F)c4)c3)cc2)CC1 | satisfied
2. O=C(NCCSc1ccc(S(=O)(=O)C2(C(=O)NO)CCN(C3CC3)CC2)cc1)c1cc2ccccc2o1 | not satisfied
3. COCCN1CCC(C(=O)NO)(S(=O)(=O)c2ccc(OCCCc3cccc(-c4cccnc4)c3)cc2)CC1 | satisfied
4. O=C(NO)C1(S(=O)(=O)c2ccc(OCCCc3cncc(-c4ccc(F)cc4)c3)cc2)CCOCC1 | not satisfied

QUERY: Dear colleague, could you confirm whether Ki of N#Cc1ccc(-c2cccc(CCCOc3ccc(S(=O)(=O)C4(C(=O)NO)CCOCC4)cc3)c2)cc1 falls below 400 nM? Thanks.
RESULT: not satisfied

###

molecular target: Human recombinant MMP-9 (Homo sapiens, UniProt P14780); construct: made in house; host or cells: MMP-9-transfected HT1080 cells (spent media); assay: In vitro MMP inhibition, Ki determination (fluorogenic substrate II); assay type: biochemical; settings: value in parentheses
Sequence (P14780 107-707 limits assumed): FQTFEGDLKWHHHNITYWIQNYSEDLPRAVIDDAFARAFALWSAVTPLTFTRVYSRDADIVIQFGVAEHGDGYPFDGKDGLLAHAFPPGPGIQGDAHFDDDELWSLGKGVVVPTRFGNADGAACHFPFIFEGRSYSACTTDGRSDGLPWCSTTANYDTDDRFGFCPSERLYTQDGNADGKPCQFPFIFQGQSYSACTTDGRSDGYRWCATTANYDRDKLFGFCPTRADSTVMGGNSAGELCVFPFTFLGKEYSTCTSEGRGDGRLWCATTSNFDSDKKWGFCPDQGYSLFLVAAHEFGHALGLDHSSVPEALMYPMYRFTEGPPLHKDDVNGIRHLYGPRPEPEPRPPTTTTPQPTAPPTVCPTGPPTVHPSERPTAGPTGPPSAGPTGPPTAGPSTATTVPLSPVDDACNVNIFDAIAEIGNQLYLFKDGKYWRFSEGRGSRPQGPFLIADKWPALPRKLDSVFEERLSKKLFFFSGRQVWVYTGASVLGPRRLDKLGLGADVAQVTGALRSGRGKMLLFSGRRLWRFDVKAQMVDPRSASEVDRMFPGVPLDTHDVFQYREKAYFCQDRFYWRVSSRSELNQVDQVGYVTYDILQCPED
pKi: −log10 of the molar value.
Label NOT MET if pKi falls below 6; label MET in every other case.

// known answers, use as guide
1) O=C(Cc1csc2ccccc12)NCCOc1ccc(S(=O)(=O)C2(C(=O)NO)CCOCC2)cc1 | MET
2) O=C(NO)C1(S(=O)(=O)c2ccc(OCCCc3nc(-c4cccnc4)no3)cc2)CCOCC1 | MET
3) CN1CCC(C(=O)NO)(S(=O)(=O)c2ccc(SCCNC(=O)c3cc4ccccc4o3)cc2)CC1 | NOT MET
4) CCN1CCC(C(=O)NO)(S(=O)(=O)c2ccc(OCCCc3cccc(-c4ccc(Cl)cc4)c3)cc2)CC1 | NOT MET
5) CCCCC(=O)CCCOc1ccc(S(=O)(=O)C2(C(=O)NO)CCOCC2)cc1 | MET

QUERY: Dear colleague, could you confirm whether O=C(NO)C1(S(=O)(=O)c2ccc(OCCCOc3cncnc3)cc2)CCOCC1 has pKi at or above 6?
RESULT: MET

QUERY: Dear colleague, could you confirm whether CCCCc1ccc(CCCOc2ccc(S(=O)(=O)C3(C(=O)NO)CCOCC3)cc2)cn1 has pKi at or above 6?
RESULT: MET

QUERY: Dear colleague, could you confirm whether O=C(NO)C1(S(=O)(=O)c2ccc(OCCCc3cccc(-c4ccc5c(c4)OCCO5)c3)cc2)CCOCC1 has pKi at or above 6?
RESULT: NOT MET

QUERY: Dear colleague, could you confirm whether O=C(NO)C1(S(=O)(=O)c2ccc(OCCc3ccccn3)cc2)CCOCC1 has pKi at or above 6?
RESULT: MET

QUERY: Dear colleague, could you confirm whether C=Cc1ccc(-c2cccc(CCCOc3ccc(S(=O)(=O)C4(C(=O)NO)CCOCC4)cc3)c2)cc1 has pKi at or above 6?
RESULT: NOT MET

QUERY: Dear colleague, could you confirm whether O=C(NO)C1(S(=O)(=O)c2ccc(OCCCc3ccc(F)c(-c4ccccc4)c3)cc2)CCOCC1 has pKi at or above 6?
RESULT: NOT MET

QUERY: Dear colleague, could you confirm whether O=C(CCCOc1ccc(S(=O)(=O)C2(C(=O)NO)CCOCC2)cc1)Nc1cccc(I)c1 has pKi at or above 6?
RESULT: MET

QUERY: Dear colleague, could you confirm whether O=C(NO)C1(S(=O)(=O)c2ccc(OCCCc3cccc(-c4ccc(O)cc4)c3)cc2)CCOCC1 has pKi at or above 6?
RESULT: NOT MET

QUERY: Dear colleague, could you confirm whether O=C(NO)C1(S(=O)(=O)c2ccc(OCCCc3cccc(-n4ccnc4)c3)cc2)CCOCC1 has pKi at or above 6?
RESULT: MET

QUERY: Dear colleague, could you confirm whether COCCN1CCC(C(=O)NO)(S(=O)(=O)c2ccc(OCCCc3cccc(-c4ccc(C#N)cc4)c3)cc2)CC1 has pKi at or above 6?
RESULT: MET

QUERY: Dear colleague, could you confirm whether COCCN1CCC(C(=O)NO)(S(=O)(=O)c2ccc(OCCNC(=O)c3cc4ccccc4o3)cc2)CC1 has pKi at or above 6?
RESULT: MET

QUERY: Dear colleague, could you confirm whether CCCC(=O)CCCOc1ccc(S(=O)(=O)C2(C(=O)NO)CCOCC2)cc1 has pKi at or above 6?
RESULT: MET

QUERY: Dear colleague, could you confirm whether CCN1CCC(C(=O)NO)(S(=O)(=O)c2ccc(OCCCSc3nc4ccccc4s3)cc2)CC1 has pKi at or above 6?
RESULT: MET
